Values compiled from paper PMC8232766.

molecular target: FPR2-HL60 cells (Homo sapiens, UniProt P25090); construct: expressed in transfected cells; test: Inhibition of WKYMVM-induced Ca2+ influx in FPR2-HL60 cells; type: cell-based; conditions: pure compounds; 10 min preincubation; induced by 5 nM WKYMVM
Sequence (P25090 whole entry): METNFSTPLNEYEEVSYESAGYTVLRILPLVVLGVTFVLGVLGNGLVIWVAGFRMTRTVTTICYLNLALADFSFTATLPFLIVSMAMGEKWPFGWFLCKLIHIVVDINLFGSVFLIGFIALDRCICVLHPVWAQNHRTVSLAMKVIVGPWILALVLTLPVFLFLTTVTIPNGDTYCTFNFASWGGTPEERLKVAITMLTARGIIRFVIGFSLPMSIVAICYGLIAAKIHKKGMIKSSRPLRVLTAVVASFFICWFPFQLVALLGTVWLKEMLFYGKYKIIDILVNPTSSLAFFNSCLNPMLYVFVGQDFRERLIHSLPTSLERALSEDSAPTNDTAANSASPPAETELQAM
reported.metric: IC50 (µM)

These recorded examples may help you get a feel for the data.
[[record]]
compound = "C=C1CC[C@@H]2[C@H]([C@H]3[C@H]1CC[C@]3(C)O)C2(C)C [Spathulenol, spathulenol]"
test_target = "FPR2-HL60 cells (Homo sapiens, UniProt P25090)"
value_observed = 31.6

[[record]]
compound = "C[C@@H]1CC[C@H]2[C@@H]1[C@H]1[C@@H](CC[C@]2(C)O)C1(C)C [Viridiflorol, viridiflorol]"
test_target = "FPR2-HL60 cells (Homo sapiens, UniProt P25090)"
value_observed = 10.7


I. CC(C)=C1C/C=C(\C)CC/C=C(\C)CC1=O [Germacrone]
II. C=C[C@]1(C)Cc2occ(C)c2C[C@H]1C(=C)C [Curzerene]
Q) Dear colleague, could you let me know whether I or II has the lower recorded IC50? Thanks. In your reply, give the label of the chosen option.
A) II
(II: 16.7 µM, I: 25 µM)

====

biological target: FPR1-HL60 cells (Homo sapiens, UniProt P21462); assay: Inhibition of fMLF-induced Ca2+ influx in FPR1-HL60 cells; conditions: pure compounds; 10 min preincubation; induced by 5 nM fMLF
Sequence (P21462 whole entry): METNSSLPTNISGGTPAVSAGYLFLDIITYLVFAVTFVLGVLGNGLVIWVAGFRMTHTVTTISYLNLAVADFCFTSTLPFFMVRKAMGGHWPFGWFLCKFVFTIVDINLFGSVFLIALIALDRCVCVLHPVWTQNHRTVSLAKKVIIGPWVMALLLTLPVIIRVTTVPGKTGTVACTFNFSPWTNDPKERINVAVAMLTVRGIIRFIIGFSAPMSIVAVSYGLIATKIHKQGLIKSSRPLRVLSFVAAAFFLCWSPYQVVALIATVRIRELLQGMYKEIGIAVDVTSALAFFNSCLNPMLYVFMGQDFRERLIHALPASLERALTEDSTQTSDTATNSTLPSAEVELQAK
pIC50: −log10 of the molar value.
reported.metric: pIC50

Guide cases for pIC50, answers given:
[[record]]
molecule = "CC(C)=C1C/C=C(\\C)CC/C=C(\\C)CC1=O"
reported_metric = "pIC50"
value_observed = 4.56

[[record]]
molecule = "C=C[C@]1(C)Cc2occ(C)c2C[C@H]1C(=C)C"
reported_metric = "pIC50"
value_observed = 4.66


P. C=C1CC[C@@H]2[C@H]([C@H]3[C@H]1CC[C@]3(C)O)C2(C)C
Q. C[C@@H]1CC[C@H]2[C@@H]1[C@H]1[C@@H](CC[C@]2(C)O)C1(C)C
Q) Sorting ascending by pIC50, which comes first: P or Q ? Mark your selection by writing its label.
A) P
(P: 4.49, Q: 4.71)
